B1: FEM1B (parent)
chain: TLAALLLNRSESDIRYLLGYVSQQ

Variants of: B1
test-summary: protein stability index of a GFP-peptide fusion (GPS, HEK-293T) (PSI 1-6); higher = more stable;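 also: lentivirally expressed fusions sorted by FACS into six bins by GFP to DsRed ratio, PSI derived from sequencing read proportions per bin multiplied by bin number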
cond: c terminus: a fixed tail appended
observed-property: protein stability index
Could you keep your reply to the number by itself?

[ask] Find the recorded protein stability index belonging to TLAALLLNRSESDIRYLLGRVSQQ [Y20R] and report it.
[reply] 3.14

[ask] Please give the result for TLAALLLNRSESDIRYLLYYVSQQ [G19Y] too.
[reply] 3.17

[ask] Again, but for TLAALLLNRSESDINYLLGYVSQQ [R15N]
[reply] 2.55

[ask] Follow-up item: TLAALLLNLSESDIRYLLGYVSQQ [R9L]
[reply] 3.24

[ask] Entry TLAALLLNRSESIIRYLLGYVSQQ [D13I] please
[reply] 3.07

[ask] Same question for TLAALLLNRSESDIRYLLGYVSPQ [Q23P] please.
[reply] 1.36

[ask] Same lookup for TLAALLLNRSESDIRYPLGYVSQQ [L17P] , please.
[reply] 1.51

[ask] Cool, now TLAACLLNRSESDIRYLLGYVSQQ [L5C]
[reply] 2.4

[ask] Next entry: TLAALLLNRSESDIRYLLGYVHQQ [S22H]
[reply] 2.55

[ask] # repeat for TLIALLLNRSESDIRYLLGYVSQQ [A3I]
[reply] 2.65

[ask] Likewise for TLAALLLNRSESDIRTLLGYVSQQ [Y16T] ?
[reply] 3.16

[ask] What about this variant? TLAALLLNRSESDIRYLLGYVSSQ [Q23S]
[reply] 2.92

[ask] Thanks! And TLAALLLNRSESDIRYLLGYVSQF [Q24F] ?
[reply] 2.26

[ask] Next up: TLAALLLNRSESDIRYLLGCVSQQ [Y20C]
[reply] 3.38

[ask] Okay, and PLAALLLNRSESDIRYLLGYVSQQ [T1P] ?
[reply] 2.1

[ask] TLPALLLNRSESDIRYLLGYVSQQ [A3P] ?
[reply] 2.08

[ask] Subsequent entry: TLAALLLNRSESDIRYLLGYVPQQ [S22P]
[reply] 2.53

[ask] Consider next the variant ALAALLLNRSESDIRYLLGYVSQQ [T1A] in the same way.
[reply] 2.5

[ask] Request: TLAALLLNRSESDIRYLLGYGSQQ [V21G]
[reply] 1.62

[ask] Now the same for TLAALLLNRSESDIRYELGYVSQQ [L17E]
[reply] 3.04

[ask] Please answer likewise for TLAALLLNRSESDIRYLLGYVSAQ [Q23A]
[reply] 2.35

[ask] And then TLAALLLNRSESDILYLLGYVSQQ [R15L] , what is it?
[reply] 3.36

[ask] Now consider TLAALLLNRSESDIRYLLGYVSRQ [Q23R] .
[reply] 2.6

[ask] Another variant to check: TTAALLLNRSESDIRYLLGYVSQQ [L2T]
[reply] 1.77

[ask] Now the same for TLAALLLIRSESDIRYLLGYVSQQ [N8I]
[reply] 1.53

[ask] Repeat with TLQALLLNRSESDIRYLLGYVSQQ [A3Q]
[reply] 2.31

[ask] And the next one, TLAALLLNRSESDIRVLLGYVSQQ [Y16V] ?
[reply] 2.24

[ask] Moving on to TLAAKLLNRSESDIRYLLGYVSQQ [L5K]
[reply] 1.44

[ask] Another variant: TLAHLLLNRSESDIRYLLGYVSQQ [A4H]
[reply] 2.97

[ask] // repeat for TLAALLLNRSESDIRYLLVYVSQQ [G19V] and report
[reply] 3.02

[ask] Ok, now TLAALLLWRSESDIRYLLGYVSQQ [N8W]
[reply] 4.75

[ask] Okay, and TLAALLLNRSESDIRYLLQYVSQQ [G19Q] ?
[reply] 2.11

[ask] Another variant to check: TLAALLLNRSESDIRYILGYVSQQ [L17I]
[reply] 1.99

[ask] // same read-out, input: TLAALLLNRSEVDIRYLLGYVSQQ [S12V]
[reply] 1.73

[ask] Follow-up item: TLAALLLNRSESDIRYDLGYVSQQ [L17D]
[reply] 1.65

[ask] Again, but for TLAALLLNRSESDIRYLLKYVSQQ [G19K]
[reply] 3.24

[ask] Try the variant TLAALLLNRSESDDRYLLGYVSQQ [I14D]
[reply] 1.53

[ask] Can you check TLAALLLNRSESDIRYLHGYVSQQ [L18H] next?
[reply] 2.17

[ask] And what about the variant TLAVLLLNRSESDIRYLLGYVSQQ [A4V] ?
[reply] 2.42

[ask] Then TLAILLLNRSESDIRYLLGYVSQQ [A4I] ?
[reply] 2.37

[ask] Note, next up: TLAALLLNRSESDIRYLLGYVSGQ [Q23G]
[reply] 2.58

[ask] Input TLAALLLNRSESDIRYLLGYVSKQ [Q23K]
[reply] 2.87

[ask] For TLAALLLNRSESDIRYLLGYVSMQ [Q23M] then?
[reply] 3.68

[ask] Also, TLAALLLNRSESDIRGLLGYVSQQ [Y16G] please.
[reply] 3.2

[ask] Query TLAALLLNRSESDIRYLLGYISQQ [V21I] next
[reply] 2.41

[ask] Same lookup for TLAAELLNRSESDIRYLLGYVSQQ [L5E] , please.
[reply] 2.14
